The measurements presented in this section are drawn from ChEMBL document CHEMBL3091384.

This document collects ΔTm values reported for Poly [ADP-ribose] polymerase 14, ARTD8/PARP14 (Homo sapiens).
experimental_endpoint: ΔTm (°C)

// known answers, use as guide
compound	ΔTm, °C
C[C@H](NC(=O)CCc1nc2ccccc2c(=O)[nH]1)c1cccc(Cl)c1	-0.1
O=C(CCc1nc2ccccc2c(=O)[nH]1)NC(c1ccccc1)c1ccccc1	0.45
C[C@@H](NC(=O)CCCc1nc2ccccc2c(=O)[nH]1)c1ccccc1	-0.05

P. O=C(CCCc1nc2ccccc2c(=O)[nH]1)N[C@@H]1CCc2ccccc21
Q. O=C(CCc1nc2ccccc2c(=O)[nH]1)NC1CCCc2ccccc21 (stereo not given)
Response body: label of entry with the larger ΔTm; valid values P , Q . Field: selected label. Fill in the label of the entry you choose.
Q
(Q: 0.24 °C, P: 0.13 °C)
